In this section, each of the compounds is paired with its reported Antifungal activity MIC.
System: Candida glabrata DSM 11226
assay.notes: antifungal activity in vitro, serial dilution in RPMI 1640
Type: cell-based

# compound, Antifungal activity MIC, µg/mL
measured = [
    ("CCN(CC)CCNC(=S)N[C@@H]1[C@H](O)[C@H](O[C@H]2/C=C/C=C/C=C/C=C/C=C/C=C/C=C/[C@H](C)[C@@H](O)[C@@H](C)[C@H](C)OC(=O)C[C@H](O)C[C@H](O)CC[C@@H](O)[C@H](O)C[C@H](O)C[C@]3(O)C[C@H](O)[C@@H](C(=O)O)[C@H](C2)O3)O[C@H](C)[C@H]1O", 4),
    ("C[C@@H]1[C@H](O)[C@@H](C)/C=C/C=C/C=C/C=C/C=C/C=C/C=C/[C@H](O[C@@H]2O[C@H](C)[C@@H](O)[C@H](NC(=S)NCCN(C)C)[C@@H]2O)C[C@@H]2O[C@](O)(C[C@@H](O)C[C@@H](O)[C@H](O)CC[C@@H](O)C[C@@H](O)CC(=O)O[C@H]1C)C[C@H](O)[C@H]2C(=O)O", 4),
    ("C[C@@H]1[C@H](O)[C@@H](C)/C=C/C=C/C=C/C=C/C=C/C=C/C=C/[C@H](O[C@@H]2O[C@H](C)[C@@H](O)[C@H](NC(=O)[C@@H](N)CSC(C)(C)C)[C@@H]2O)C[C@@H]2O[C@](O)(C[C@@H](O)C[C@@H](O)[C@H](O)CC[C@@H](O)C[C@@H](O)CC(=O)O[C@H]1C)C[C@H](O)[C@H]2C(=O)O [Compound A37, N-L-(S-tert-butyl)cystylamphotericin B]", 4),
]

----------
Test system: Candida tropicalis KKP 334
assay.notes: antifungal activity in vitro, serial dilution in RPMI 1640
Assay type: cell-based
readout.kind: Antifungal activity MIC (µg/mL)

# compound, unit.annotation, observed.result
measured = [
    ("C[C@@H]1[C@H](O)[C@@H](C)/C=C/C=C/C=C/C=C/C=C/C=C/C=C/[C@H](O[C@@H]2O[C@H](C)[C@@H](O)[C@H](NC3CC(=O)N(CC(C)(C)CN(C)C)C3=O)[C@@H]2O)C[C@@H]2O[C@](O)(C[C@@H](O)C[C@@H](O)[C@H](O)CC[C@@H](O)C[C@@H](O)CC(=O)O[C@H]1C)C[C@H](O)[C@H]2C(=O)O (stereo partly drawn) [Compound A7]", "µg/mL", 2),
    ("C[C@@H]1[C@H](O)[C@@H](C)/C=C/C=C/C=C/C=C/C=C/C=C/C=C/[C@H](O[C@@H]2O[C@H](C)[C@@H](O)[C@H](NC(=S)NCCN3CCOCC3)[C@@H]2O)C[C@@H]2O[C@](O)(C[C@@H](O)C[C@@H](O)[C@H](O)CC[C@@H](O)C[C@@H](O)CC(=O)O[C@H]1C)C[C@H](O)[C@H]2C(=O)O [Compound A24]", "µg/mL", 2),
    ("C[C@@H]1[C@H](O)[C@@H](C)/C=C/C=C/C=C/C=C/C=C/C=C/C=C/[C@H](O[C@@H]2O[C@H](C)[C@@H](O)[C@H](NC(=S)Nc3ccccc3)[C@@H]2O)C[C@@H]2O[C@](O)(C[C@@H](O)C[C@@H](O)[C@H](O)CC[C@@H](O)C[C@@H](O)CC(=O)O[C@H]1C)C[C@H](O)[C@H]2C(=O)O [Compound A23, N-[(3-phenyl)-thioureidyl]amphotericin B]", "µg/mL", 4),
    ("C[C@@H]1[C@H](O)[C@@H](C)/C=C/C=C/C=C/C=C/C=C/C=C/C=C/[C@H](O[C@@H]2O[C@H](C)[C@@H](O)[C@H](NC3CC(=O)N(CCO)C3=O)[C@@H]2O)C[C@@H]2O[C@](O)(C[C@@H](O)C[C@@H](O)[C@H](O)CC[C@@H](O)C[C@@H](O)CC(=O)O[C@H]1C)C[C@H](O)[C@H]2C(=O)O (stereo partly drawn) [Compound A8]", "µg/mL", 4),
    ("C[C@@H]1[C@H](O)[C@@H](C)/C=C/C=C/C=C/C=C/C=C/C=C/C=C/[C@H](O[C@@H]2O[C@H](C)[C@@H](O)[C@H](NC(=O)[C@@H](N)CSC(C)(C)C)[C@@H]2O)C[C@@H]2O[C@](O)(C[C@@H](O)C[C@@H](O)[C@H](O)CC[C@@H](O)C[C@@H](O)CC(=O)O[C@H]1C)C[C@H](O)[C@H]2C(=O)O [Compound A37, N-L-(S-tert-butyl)cystylamphotericin B]", "µg/mL", 2),
    ("C[C@@H]1[C@H](O)[C@@H](C)/C=C/C=C/C=C/C=C/C=C/C=C/C=C/[C@H](O[C@@H]2O[C@H](C)[C@@H](O)[C@H](NCc3ccc(C(C)(C)C)cc3)[C@@H]2O)C[C@@H]2O[C@](O)(C[C@@H](O)C[C@@H](O)[C@H](O)CC[C@@H](O)C[C@@H](O)CC(=O)O[C@H]1C)C[C@H](O)[C@H]2C(=O)O [Compound A21, N-(4-tert-butylbenzyl)amphotericin B]", "µg/mL", 4),
]

----------
System: Candida albicans ATCC 10231
assay.notes: antifungal activity in vitro, serial dilution in RPMI 1640
Type: cell-based

# compound, Antifungal activity MIC [µg/mL]
rows = [
    ("C[C@@H]1[C@H](O)[C@@H](C)/C=C/C=C/C=C/C=C/C=C/C=C/C=C/[C@H](O[C@@H]2O[C@H](C)[C@@H](O)[C@H](NCc3ccc(C(C)(C)C)cc3)[C@@H]2O)C[C@@H]2O[C@](O)(C[C@@H](O)C[C@@H](O)[C@H](O)CC[C@@H](O)C[C@@H](O)CC(=O)O[C@H]1C)C[C@H](O)[C@H]2C(=O)O", 4),
    ("C[C@@H]1[C@H](O)[C@@H](C)/C=C/C=C/C=C/C=C/C=C/C=C/C=C/[C@H](O[C@@H]2O[C@H](C)[C@@H](O)[C@H](NC(=O)C(N)Cc3ccccc3F)[C@@H]2O)C[C@@H]2O[C@](O)(C[C@@H](O)C[C@@H](O)[C@H](O)CC[C@@H](O)C[C@@H](O)CC(=O)O[C@H]1C)C[C@H](O)[C@H]2C(=O)O (stereo partly drawn)", 2),
    ("C[C@@H]1[C@H](O)[C@@H](C)/C=C/C=C/C=C/C=C/C=C/C=C/C=C/[C@H](O[C@@H]2O[C@H](C)[C@@H](O)[C@H](NC(=O)[C@@H](N)Cc3ccc([N+](=O)[O-])cc3)[C@@H]2O)C[C@@H]2O[C@](O)(C[C@@H](O)C[C@@H](O)[C@H](O)CC[C@@H](O)C[C@@H](O)CC(=O)O[C@H]1C)C[C@H](O)[C@H]2C(=O)O", 2),
]

----------
Tested on: Candida glabrata DSM 11226
assay.notes: antifungal activity in vitro, serial dilution in RPMI 1640
Assay type: cell-based
In this section, each of the compounds is paired with its reported Antifungal activity MIC.

# compound, Antifungal activity MIC
rows = [
    ("Cc1cc(C)c(N2C(=O)CC(N[C@@H]3[C@H](O)[C@H](O[C@H]4/C=C/C=C/C=C/C=C/C=C/C=C/C=C/[C@H](C)[C@@H](O)[C@@H](C)[C@H](C)OC(=O)C[C@H](O)C[C@H](O)CC[C@@H](O)[C@H](O)C[C@H](O)C[C@]5(O)C[C@H](O)[C@@H](C(=O)O)[C@H](C4)O5)O[C@H](C)[C@H]3O)C2=O)c(C)c1 (stereo partly drawn) [Compound A1]", "8 µg/mL"),
    ("C[C@@H]1[C@H](O)[C@@H](C)/C=C/C=C/C=C/C=C/C=C/C=C/C=C/[C@H](O[C@@H]2O[C@H](C)[C@@H](O)[C@H](NC3CC(=O)N(c4ccc(Br)cc4)C3=O)[C@@H]2O)C[C@@H]2O[C@](O)(C[C@@H](O)C[C@@H](O)[C@H](O)CC[C@@H](O)C[C@@H](O)CC(=O)O[C@H]1C)C[C@H](O)[C@H]2C(=O)O (stereo partly drawn) [Compound A3]", "8 µg/mL"),
    ("C[C@@H]1[C@H](O)[C@@H](C)/C=C/C=C/C=C/C=C/C=C/C=C/C=C/[C@H](O[C@@H]2O[C@H](C)[C@@H](O)[C@H](NC(=S)Nc3cccnc3)[C@@H]2O)C[C@@H]2O[C@](O)(C[C@@H](O)C[C@@H](O)[C@H](O)CC[C@@H](O)C[C@@H](O)CC(=O)O[C@H]1C)C[C@H](O)[C@H]2C(=O)O [Compound A26]", "8 µg/mL"),
    ("C[C@@H]1[C@H](O)[C@@H](C)/C=C/C=C/C=C/C=C/C=C/C=C/C=C/[C@H](O[C@@H]2O[C@H](C)[C@@H](O)[C@H](NC3CC(=O)N(c4ccccc4C(C)(C)C)C3=O)[C@@H]2O)C[C@@H]2O[C@](O)(C[C@@H](O)C[C@@H](O)[C@H](O)CC[C@@H](O)C[C@@H](O)CC(=O)O[C@H]1C)C[C@H](O)[C@H]2C(=O)O (stereo partly drawn) [Compound A4]", "8 µg/mL"),
    ("C[C@@H]1[C@H](O)[C@@H](C)/C=C/C=C/C=C/C=C/C=C/C=C/C=C/[C@H](O[C@@H]2O[C@H](C)[C@@H](O)[C@H](NCc3ccc(-c4ccccc4)cc3)[C@@H]2O)C[C@@H]2O[C@](O)(C[C@@H](O)C[C@@H](O)[C@H](O)CC[C@@H](O)C[C@@H](O)CC(=O)O[C@H]1C)C[C@H](O)[C@H]2C(=O)O [Compound A20, N-[(4-biphenyl)methyl]amphotericin B]", "4 µg/mL"),
    ("C[C@@H]1[C@H](O)[C@@H](C)/C=C/C=C/C=C/C=C/C=C/C=C/C=C/[C@H](O[C@@H]2O[C@H](C)[C@@H](O)[C@H](NC(=O)[C@H](N)Cc3cccnc3)[C@@H]2O)C[C@@H]2O[C@](O)(C[C@@H](O)C[C@@H](O)[C@H](O)CC[C@@H](O)C[C@@H](O)CC(=O)O[C@H]1C)C[C@H](O)[C@H]2C(=O)O [Compound A36, N-D-β-(pyridin-3-yl)alanylamphotericin B]", "4 µg/mL"),
]
